Reported MIC90 values are given for each entry in this list.
- Test system: Fusobacterium varium
- protocol-details: Antimicrobial activity against Fusobacterium varium isolated from intra-abdominal infection and pelvic inflammatory disease patients after 48 hrs by agar dilution method
- Type: functional
Dear colleague, please return just the value in µg/mL, with no unit written.

Example cases with answers are listed next.
> print(dat)
                                   compound         tested.target  measured.endpoint  reported
1  C[C@@H](O)[C@H]1C(=O)N2C(C(=O)O)=C(SCCNC=N)C[C@H]12 [IMIPENEM ANHYDROUS]  Fusobacterium varium              MIC90         1
2                 Cc1ncc([N+](=O)[O-])n1CCO  Fusobacterium varium              MIC90       0.5
3  C[C@@H](O)[C@H]1C(=O)N2C(C(=O)O)=C(S[C@@H]3CN[C@H](C(=O)N(C)C)C3)[C@H](C)[C@H]12  Fusobacterium varium              MIC90      0.25

Inquiry: Please report the measured MIC90 for CCC[C@@H]1C[C@@H](C(=O)N[C@@H]([C@H]2O[C@H](SC)[C@H](O)[C@@H](O)[C@H]2O)[C@H](C)Cl)N(C)C1
Reply text: 16

====

Reported log10 of MIC50 values are given for each entry in this list.
- System: Anaerococcus tetradius
- protocol-details: Antimicrobial activity against Anaerococcus tetradius isolated from intra-abdominal infection and pelvic inflammatory disease patients after 48 hrs by agar dilution method
- Format: functional
// do not treat as linear: log10 of MIC50, unit µg/mL

Example cases with answers are listed next.
> print(dat)
                                   molecule  reported
1  CCC[C@@H]1C[C@@H](C(=O)N[C@@H]([C@H]2O[C@H](SC)[C@H](O)[C@@H](O)[C@H]2O)[C@H](C)Cl)N(C)C1     -0.30
2  C[C@@H](O)[C@H]1C(=O)N2C(C(=O)O)=C(S[C@@H]3CN[C@H](CNS(N)(=O)=O)C3)[C@H](C)[C@H]12     -1.52
3  C[C@@H](O)[C@H]1C(=O)N2C(C(=O)O)=C(S[C@@H]3CN[C@H](C(=O)Nc4cccc(C(=O)O)c4)C3)[C@H](C)[C@H]12     -1.22
4  C[C@@H](O)[C@H]1C(=O)N2C(C(=O)O)=C(SCCNC=N)C[C@H]12 [IMIPENEM ANHYDROUS]     -1.52
5                 Cc1ncc([N+](=O)[O-])n1CCO      0.30

Inquiry: Please report log10 of MIC50 with Anaerococcus tetradius for item CO/N=C(\C(=O)N[C@@H]1C(=O)N2C(C(=O)O)=C(CSc3nc(=O)c(O)nn3C)CS[C@H]12)c1csc(N)n1 .
Reply text: -0.60

Inquiry: Please report log10 of MIC50 with Anaerococcus tetradius for item C[C@@H](O)[C@H]1C(=O)N2C(C(=O)O)=C(S[C@@H]3CN[C@H](C(=O)N(C)C)C3)[C@H](C)[C@H]12 .
Reply text: -1.52

====

- Test system: Bacteroides fragilis
- protocol-details: Antimicrobial activity against beta lactamase-positive Bacteroides fragilis isolated from intra-abdominal infection and pelvic inflammatory disease patients after 48 hrs by time kill analysis
- Assay type: functional
Threshold 0.2 µg/mL. MIC below it: met. MIC at it or above: not met.

Inquiry: # TODO verify MIC < 0.2 µg/mL strictly for this compound: CO/N=C(\C(=O)N[C@@H]1C(=O)N2C(C(=O)O)=C(CSc3nc(=O)c(O)nn3C)CS[C@H]12)c1csc(N)n1 [CEFTRIAXONE]
Reply text: not met

Inquiry: # TODO verify MIC < 0.2 µg/mL strictly for this compound: C[C@@H](O)[C@H]1C(=O)N2C(C(=O)O)=C(S[C@@H]3CN[C@H](C(=O)N(C)C)C3)[C@H](C)[C@H]12 [MEROPENEM]
Reply text: met

Inquiry: # TODO verify MIC < 0.2 µg/mL strictly for this compound: C[C@@H](O)[C@H]1C(=O)N2C(C(=O)O)=C(SCCNC=N)C[C@H]12 [IMIPENEM ANHYDROUS]
Reply text: met

Inquiry: # TODO verify MIC < 0.2 µg/mL strictly for this compound: CCC[C@@H]1C[C@@H](C(=O)N[C@@H]([C@H]2O[C@H](SC)[C@H](O)[C@@H](O)[C@H]2O)[C@H](C)Cl)N(C)C1 [CLINDAMYCIN]
Reply text: not met

Inquiry: # TODO verify MIC < 0.2 µg/mL strictly for this compound: C[C@@H](O)[C@H]1C(=O)N2C(C(=O)O)=C(S[C@@H]3CN[C@H](CNS(N)(=O)=O)C3)[C@H](C)[C@H]12 [DORIPENEM]
Reply text: not met

Inquiry: # TODO verify MIC < 0.2 µg/mL strictly for this compound: Cc1ncc([N+](=O)[O-])n1CCO [METRONIDAZOLE]
Reply text: not met

Inquiry: # TODO verify MIC < 0.2 µg/mL strictly for this compound: C[C@@H](O)[C@H]1C(=O)N2C(C(=O)O)=C(S[C@@H]3CN[C@H](C(=O)Nc4cccc(C(=O)O)c4)C3)[C@H](C)[C@H]12
Reply text: not met
